experiment: NCI Yeast Anticancer Drug Screen. Data for the sgs1 mgt1 strain (AID 161);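 further: 0% = growth of cultures given vehicle only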; conditions: S. cerevisiae sgs1 mgt1 strain, at 50.0 µM, hits give high values
About 79,000 compounds went through this panel and 15% of them were active in at least one assay; those are over-represented in the sample as a whole.

COMPOUND	growth inhibition, %
COc1cc(C(=O)OC2CC3CN(CCc4c[nH]c5ccccc45)CC3CC2OC)cc(OC)c1OC (centres undefined)	28.4
CCOC(CN(Cc1ccccc1)CC(OCC)OCC)OCC	12.9
CC1(C)OCC(C2OC3OC(C)(C)OC3C2O)O1 (centres undefined)	10.5
Cc1ccc(C(=O)NNC(=O)c2ccc3ccccc3c2)cc1	7
CN(C)c1ccc(C2NC(c3ccccc3)c3c(ccc4ccccc34)O2)cc1 (centres undefined)	-12.7
CCOC(=O)c1ccc(CS(=O)c2ccccc2)c([N+](=O)[O-])c1 (centres undefined)	20.6
c1ccc2c(c1)SCCCSCCSCCCS2	8.1
N#CN=C(N(Cc1ccccc1)Cc1ccccc1)N(Cc1ccccc1)Cc1ccccc1	-18.6
CC(C)(O)C(O)(c1ccccc1)c1ccccc1	16.7
Cc1ccc(S(=O)(=O)N2CCCSCCN(S(=O)(=O)c3ccc(C)cc3)CCCSCC2)cc1	-30.2
COc1ccc2[nH]c3c(c2c1)-c1ncncc1CC3	-3.7
CCc1ccc(NC(=O)Nc2ccc(Cl)cc2)cc1	-8.65
Brc1ccc[n+](CCc2ccccc2)c1	-6.7
CCCCC(SC(CC)(CC)C(N)=O)C(N)=O (centres undefined)	6.55
Cc1cccc(C2CCCCC2OS(C)(=O)=O)c1 (centres undefined)	-16.9
Brc1ncnc2c1ncn2C1CCCO1 (centres undefined)	-1.5
Cc1nc(N)c2c(n1)C(Cc1ccccc1)N(C(=O)c1ccccc1)C2 (centres undefined)	-24.1
O=C(/C=C\c1ccccc1)c1ccc(-c2ccc([N+](=O)[O-])cc2)cc1	9.05
CCC(=O)NC(Nc1cccc(F)c1)(C(F)(F)F)C(F)(F)F	-20.7
COC(=O)C(CC(=O)Nc1ccc(C)cc1)C(=O)C(=O)Nc1c(C(C)C)cccc1C(C)C (centres undefined)	-7.5
Cc1cc2ncn(C3CCCCO3)c2cc1C (centres undefined)	-9.4
CCOC(=O)OCCCc1ccccc1	-8.8
O=C(NC(=O)c1cc2cc(Br)cc(Br)c2oc1=O)Oc1ccccc1	14.1
CCc1cc2c(cc1COC(C)=O)C(C)(C)CCC2(C)C	5.5

* * *

Below is a list of entries, each paired with its recorded growth inhibition value.
test: NCI Yeast Anticancer Drug Screen. Data for the rad50 strain (AID 155);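 further: 0% = growth of vehicle-only cultures of the same strain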; conditions: S. cerevisiae rad50 strain growth inhibition; at 50.0 µM; hits give high values
Compounds without any hit were thinned out: in the full panel of roughly 79,000, 15% have a hit.

COMPOUND	growth inhibition (%)
CCCC(C)CCCC(=O)c1ccc2cc(OC)ccc2c1 (stereo not given)	-34.2
CC(=O)c1ccc[cH-]1.[Fe+2].c1cc[cH-]c1	13.5
COC1=CC(=O)c2nc3ccccc3c3ccnc1c23	87
NNCCSC1CCCCC1	8.9
CC(C)Oc1cc2c(cc1O)CC[C@@H]1[C@@H]2CC[C@]2(C)[C@@H](O)CC[C@@H]12	45.9
COc1ccc2ccccc2c1I	18.4
CC(O)C(c1ccc(N(C)C)cc1)c1ccc(N(C)C)cc1 (stereo not given)	-6.25
Cc1cc(-c2ccc(Cl)cc2)c(C#N)c(=S)n1C1OC(CO)C(O)C(O)C1O (stereo not given)	-19.4
Nc1cccc(C(F)(F)F)c1N	-13.6
CCC(/C=N\O)CC	-12.8
CN(C)CCCC(O)c1cccc2ccccc12 (stereo not given)	25.4
CCN(CC)C(=O)Cn1c(C)cc2ccccc21	-18.1
CC(C)(C)SC(=S)SCC(=O)c1cc2cc(Br)ccc2o1	-19.7
Cc1ccc(S(=O)(=O)OC(c2ccc(Cl)cc2Cl)C2OC(=O)c3ccccc32)cc1 (stereo not given)	23.3
Cc1ccc(/C=C/c2cc(/C=C/c3ccc(C)cc3)c([N+](=O)[O-])cc2[N+](=O)[O-])cc1	23.2
Cc1ccc(C(=O)/C=C\c2ccc(Cl)c(Cl)c2)cc1	-14.9
CN(CO)N=Nc1ccc(C(F)(F)F)cc1	-6.05
O=C(Nc1ncccn1)c1ccc(Cl)cc1Cl	-11.9
COC1N(c2ccccc2)CCN1c1ccccc1	3.05
O=C(O)[C@@H]1CCC(=O)N1C(c1ccc2c(c1)OCO2)c1ccc2c(c1)OCO2	-52.2
CC(C)(C)c1ccc(SC(=O)Nc2cccc(Cl)c2Cl)cc1	8.35
Cc1cccc(C2=NC(=C3CCCCC3)C(=O)O2)c1	4.5
CCOC(=O)/C(=C(/N)C1OC(COC(c2ccccc2)(c2ccccc2)c2ccccc2)C2OC(C)(C)OC12)C1CC(=O)N(C)C1=O (stereo not given)	-4.35
O=C(O)COc1ccc(C2CCCCC2)cc1	5.1
CN(C)CCN(C)C(=N)N	-10.3
c1ccc2c(c1)CCOC2	-0.4
O=C(O)CCCC#CCCCC(=O)O	10.4
CCN(CC)Cc1cc(Nc2cc(C)nc(/N=C(\N)Nc3cc(Cl)cc(Cl)c3)n2)ccc1O	95.2
COC1=CC(=O)C(C(C)=O)=C(C2(C)C(=O)CCCC2=O)C1=O	-12.3
CC(C)NCCC(O)c1cc2ccccc2o1 (stereo not given)	-12.8
c1ccc(CC2CO2)cc1 (stereo not given)	-2.7
Cc1nn(C(=O)c2ccncc2)c2c1C(c1ccccc1)SC(N)=N2 (stereo not given)	-2.9
C=CC12CCCCC1C(NC)Cc1ccc(OC)c(O)c12 (stereo not given)	4.25
CC1(C)N=C(/C=N/O)C(C)(C)N1O	6.65
CN(C)Cc1ccccc1COC(=O)c1ccc([N+](=O)[O-])cc1Cl	-8.9
CC1COB(c2ccccc2)OCC(C)N1CNC(=O)C1=C(O)C2(O)C(O)=C3C(=O)C4C(O)=CC=CC4C(C)(O)C3CC2C(N(C)C)C1=O (stereo not given)	-8.75
CC1CCC2CC(=O)C(Br)CC2(C)C1C (stereo not given)	23.6
CCOC(=O)C1CN2C(=O)CCC2C1=O (stereo not given)	-5.65
O=C=Nc1ccc([N+](=O)[O-])cc1	-0.9
O=C1/C(=C/c2ccc(Cl)cc2)Oc2ccccc21	-31.4
CSc1nc2c(N)ncnc2n1C	11.4
COc1c2c(cc3c(CCc4ccccc4)cc(=O)oc13)CCC(C)(C)O2	-5.95
CCOC(=O)c1c(N=P(c2ccccc2)(c2ccccc2)c2ccccc2)nnc(-c2ccccc2)c1-c1ccccc1	-36.4
N#C/C(=C\c1ccco1)c1ccc([N+](=O)[O-])cc1	16.2
Fc1ccc(C(c2ccc(F)cc2)C(F)(F)F)cc1	8.65
Nc1ncnc2oc(-c3ccccc3)nc12	1.3
C=C1C2CCC3(CCC4C5(C)CCCC4(C=NC5)C3C2)C1O (stereo not given)	8.5
Nc1ccc2c(=O)[nH][nH]c2c1	-26.6
CC(=O)OC1OC(COC(c2ccccc2)(c2ccccc2)c2ccccc2)C(OCc2ccccc2)C(OCc2ccccc2)C1OC(C)=O (stereo not given)	-14.3
O=[N+]([O-])c1ccc(N/N=C/CCCCl)c([N+](=O)[O-])c1	6.6
